Provenance of the data: the NIST ThermoML archive (doi:10.1021/je900407u)

# Experiment summary: isobaric coefficient of expansion
# Experimental setup: 308.15 K; 40000 kPa; Liquid; Micro DSCII
Reported property: isobaric coefficient of expansion

* CCCCn1cc[n+](C)c1.COS(=O)(=O)[O-] [1-butyl-3-methylimidazolium methyl sulfate] | 0.000509 1/K
* CCCCn1cc[n+](C)c1.O=S(=O)([O-])C(F)(F)F [1-butyl-3-methylimidazolium trifluoromethanesulfonate] | 0.000556 1/K
* CCCC[n+]1ccn(C)c1.O=S(=O)([N-]S(=O)(=O)C(F)(F)F)C(F)(F)F | 0.000595 1/K
* CCCCn1cc[n+](C)c1.[F][Sb-]([F])([F])([F])([F])[F] [1-butyl-3-methylimidazolium hexafluoroantimonate] | 0.000571 1/K
* CCCCn1cc[n+](C)c1.F[B-](F)(F)F [1-butyl-3-methylimidazolium tetrafluoroborate] | 0.000547 1/K
